TEST_METHOD_NOTES: Tissue distribution of curcumin and THC at necropsy 15 minutes post-infusion
Design: species or system Beagle dogs
EXPERIMENTAL_PARAMETERS: both sexes, beagle, dog, in vivo, 10 mg/kg, Table 15, 2 hour infusion; +H3PO4; read-out: Tissue analysis, Lung
TEST_READOUT: concentration at 15 min
The answer consists of two parts: a number and, after it, its unit.

// query concentration at 15 min value for entry COc1cc(CCC(=O)CC(=O)CCc2ccc(O)c(OC)c2)ccc1O [THC, tetrahydrocurcumin] 6.36 ng/g

====

TEST_METHOD_NOTES: Tissue distribution of curcumin and THC at necropsy 15 minutes post-infusion
Parameters: species or system Beagle dogs
EXPERIMENTAL_PARAMETERS: both sexes, beagle, dog, in vivo, 10 mg/kg, Table 15, 2 hour infusion; −H3PO4; read-out: Tissue analysis, Lung
TEST_READOUT: concentration at 15 min (ng/g)
Report as a plain number; the unit ng/g is understood.

Give the measured concentration at 15 min of COc1cc(CCC(=O)CC(=O)CCc2ccc(O)c(OC)c2)ccc1O [THC, tetrahydrocurcumin] . 10.8
